These data points were gathered from paper PMC9551036.

- measured target: (Homo sapiens, UniProt P51532)
- Construct: P51532, residues 1448–1569 with additional N-terminal SM residues; GST (TEV site) (N); His6 (TEV site) (N, cleaved yes); made in house; host or cells: SMARCA4^BD: Escherichia coli BL21(DE3)
- Sequence (P51532 1448-1569): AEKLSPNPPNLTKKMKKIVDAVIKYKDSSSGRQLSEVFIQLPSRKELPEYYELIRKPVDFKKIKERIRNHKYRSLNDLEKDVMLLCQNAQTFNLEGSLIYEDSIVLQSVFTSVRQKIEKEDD
- assay explanation: TR-FRET ternary complex affinity and cooperativity, SMARCA4
- Assay type: binding
- measurement setup: TR-FRET competition for SMARCA4BD, without VCB; mean ± SD; read-out: TR-FRET SMARCA4BD EC50
reported endpoint: EC50

| molecule | reported value |
| --- | --- |
| Cc1ncsc1-c1ccc([C@H](CCCCCN2CCC(c3ccc4c(c3)n(C3CCCC3)c3nc(=O)c5c(Br)cccc5n43)CC2)NC(=O)[C@@H]2C[C@@H](O)CN2C(=O)[C@@H](NC(=O)C2(F)CC2)C(C)(C)C)cc1 [compound 11] | 279 nM |
| CN1CCC(c2ccc3c(c2)n(C2CCCC2)c2nc(=O)c4c(Br)cccc4n32)CC1 [compound 3] | 107 nM |
| Cc1ncsc1-c1ccc(CNC(=O)[C@@H]2C[C@@H](O)CN2C(=O)[C@@H](NC(=O)C2(F)CC2)C(C)(C)C)c(OCCOCCOCCOCCN2CCC(c3ccc4c(c3)n(C3CCCC3)c3nc(=O)c5c(Br)cccc5n43)CC2)c1 [compound 22] | 813 nM |
| Nc1cccc2c1c(=O)nc1n(C3CCCC3)c3ccccc3n21 [compound 2] | 2400 nM |
| Cc1ncsc1-c1ccc([C@H](CC[C@H](C)CCN2CCC(c3ccc4c(c3)n(C3CCCC3)c3nc(=O)c5c(Br)cccc5n43)CC2)NC(=O)[C@@H]2C[C@H](O)CN2C(=O)[C@@H](NC(=O)C2(F)CC2)C(C)(C)C)cc1 [compound 12] | 347 nM |

###

Here the recorded Kd is given for each entry.
- measured target: SMARCA2^BD (Homo sapiens, UniProt P51531)
- Construct: P51531-2, residues 1373-1493 with additional N-terminal SM residues; GST (TEV site) (N, cleaved yes); made in house; host or cells: Escherichia coli BL21(DE3)
- Sequence (P51531 1373-1493 isoform P51531-2): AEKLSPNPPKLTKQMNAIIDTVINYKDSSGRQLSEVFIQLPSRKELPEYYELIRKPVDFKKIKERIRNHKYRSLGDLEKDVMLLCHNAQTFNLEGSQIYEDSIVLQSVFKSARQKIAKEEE
- assay explanation: SPR binding to immobilised SMARCA2 bromodomain
- measurement setup: benzoxazinone lead series, Fig. 1b; read-out: SMARCA2^BD SPR KD

| molecule | unit label | relation qualifier | Kd |
| --- | --- | --- | --- |
| CN1CCN(c2nc(=O)c3ccccc3o2)CC1 [R = H] | µM | > | 25 |
| CN1CCN(c2nc(=O)c3c(F)cccc3o2)CC1 [R = F] | µM | > | 25 |
| CN1CCN(c2nc(=O)c3c(Cl)cccc3o2)CC1 [R = Cl] | µM | = | 25 |
| CN1CCN(c2nc(=O)c3c(I)cccc3o2)CC1 [R = I] | µM | = | 18 |
| CN1CCN(c2nc(=O)c3c(Br)cccc3o2)CC1 [R = Br] | µM | = | 9 |

###

- assay explanation: Microsomal stability
- Format: in vitro ADME
- measurement setup: rat liver microsomes
Reported Mic. Stab. Rat values for the following compounds.
reported endpoint: Mic. Stab. Rat (% QH)

| compound | relation qualifier | reported value |
| --- | --- | --- |
| Cc1ncsc1-c1ccc([C@H](CC[C@H](C)CCN2CCC(c3ccc4c(c3)n(C3CCCC3)c3nc(=O)c5c(Br)cccc5n43)CC2)NC(=O)[C@@H]2C[C@H](O)CN2C(=O)[C@@H](NC(=O)C2(F)CC2)C(C)(C)C)cc1 | < | 23 |
| Cc1ncsc1-c1ccc([C@H](CC[C@@H](C)CCN2CCC(c3ccc4c(c3)n(C3CCCC3)c3nc(=O)c5c(Br)cccc5n43)CC2)NC(=O)[C@@H]2C[C@@H](O)CN2C(=O)[C@@H](NC(=O)C2(F)CC2)C(C)(C)C)cc1 | < | 23 |
| Cc1ncsc1-c1ccc(CNC(=O)[C@@H]2C[C@@H](O)CN2C(=O)[C@@H](NC(=O)C2(F)CC2)C(C)(C)C)c(OCCCCN2CCC(c3ccc4c(c3)n(C3CCCC3)c3nc(=O)c5c(Br)cccc5n43)CC2)c1 | < | 23 |
| CN1CCC(c2ccc3c(c2)n(C2CCCC2)c2nc(=O)c4c(Br)cccc4n32)CC1 | = | 28 |
| Cc1ncsc1-c1ccc([C@H](COC(C)(C)CN2CCC(c3ccc4c(c3)n(C3CCCC3)c3nc(=O)c5c(Br)cccc5n43)CC2)NC(=O)[C@@H]2C[C@@H](O)CN2C(=O)[C@@H](NC(=O)C2(F)CC2)C(C)(C)C)cc1 | < | 23 |
| Cc1ncsc1-c1ccc([C@H](CCCCCN2CCC(c3ccc4c(c3)n(C3CCCC3)c3nc(=O)c5c(Br)cccc5n43)CC2)NC(=O)[C@@H]2C[C@@H](O)CN2C(=O)[C@@H](NC(=O)C2(F)CC2)C(C)(C)C)cc1 | < | 23 |
| Cc1ncsc1-c1ccc(CNC(=O)[C@@H]2C[C@@H](O)CN2C(=O)[C@@H](NC(=O)C2(F)CC2)C(C)(C)C)c(OCCN2CCC(c3ccc4c(c3)n(C3CCCC3)c3nc(=O)c5c(Br)cccc5n43)CC2)c1 | = | 33 |
| Cc1ncsc1-c1ccc(C(CCC(C)CCN2CCC(c3ccc4c(c3)n(C3CCCC3)c3nc(=O)c5c(Br)cccc5n43)CC2)NC(=O)C2CC(O)CN2C(=O)C(NC(=O)C2(F)CC2)C(C)(C)C)cc1 (stereo not shown) | < | 23 |
| Cc1ncsc1-c1ccc([C@H](COCCCN2CCC(c3ccc4c(c3)n(C3CCCC3)c3nc(=O)c5c(Br)cccc5n43)CC2)NC(=O)[C@@H]2C[C@@H](O)CN2C(=O)[C@@H](NC(=O)C2(F)CC2)C(C)(C)C)cc1 | < | 23 |
| Cc1ncsc1-c1ccc(CNC(=O)[C@@H]2C[C@@H](O)CN2C(=O)[C@@H](NC(=O)C2(F)CC2)C(C)(C)C)c(OCCOCCOCCOCCN2CCC(c3ccc4c(c3)n(C3CCCC3)c3nc(=O)c5c(Br)cccc5n43)CC2)c1 | = | 40 |
| Cc1ncsc1-c1ccc([C@@H](COCCN2CCC(c3ccc4c(c3)n(C3CCCC3)c3nc(=O)c5c(Br)cccc5n43)CC2)NC(=O)[C@@H]2C[C@@H](O)CN2C(=O)[C@@H](NC(=O)C2(F)CC2)C(C)(C)C)cc1 | = | 31 |
| Cc1ncsc1-c1ccc([C@H](CCCCN2CCC(c3ccc4c(c3)n(C3CCCC3)c3nc(=O)c5c(Br)cccc5n43)CC2)NC(=O)[C@@H]2C[C@@H](O)CN2C(=O)[C@@H](NC(=O)C2(F)CC2)C(C)(C)C)cc1 | < | 23 |
| Cc1ncsc1-c1ccc([C@H](COC(C)CN2CCC(c3ccc4c(c3)n(C3CCCC3)c3nc(=O)c5c(Br)cccc5n43)CC2)NC(=O)[C@@H]2C[C@@H](O)CN2C(=O)[C@@H](NC(=O)C2(F)CC2)C(C)(C)C)cc1 (stereo partly shown) | < | 23 |
| Cc1ncsc1-c1ccc(CNC(=O)[C@@H]2C[C@@H](O)CN2C(=O)[C@@H](NC(=O)C2(F)CC2)C(C)(C)C)c(OCCOCCOCCN2CCC(c3ccc4c(c3)n(C3CCCC3)c3nc(=O)c5c(Br)cccc5n43)CC2)c1 | = | 45 |
| Cc1ncsc1-c1ccc([C@H](CCC(C)(C)CCN2CCC(c3ccc4c(c3)n(C3CCCC3)c3nc(=O)c5c(Br)cccc5n43)CC2)NC(=O)[C@@H]2C[C@@H](O)CN2C(=O)[C@@H](NC(=O)C2(F)CC2)C(C)(C)C)cc1 | < | 23 |
| O=c1nc2n(C3CCCC3)c3cc(C4CCNCC4)ccc3n2c2cccc(Br)c12 | < | 23 |
| Cc1ncsc1-c1ccc(CNC(=O)[C@@H]2C[C@H](O)CN2C(=O)[C@@H](NC(=O)C2(F)CC2)C(C)(C)C)c(OCCN2CCC(c3ccc4c(c3)n(C3CCCC3)c3nc(=O)c5c(Br)cccc5n43)CC2)c1 | = | 28 |
| Cc1ncsc1-c1ccc([C@H](COCCN2CCC(c3ccc4c(c3)n(C3CCCC3)c3nc(=O)c5c(Br)cccc5n43)CC2)NC(=O)[C@@H]2C[C@@H](O)CN2C(=O)[C@@H](NC(=O)C2(N(C)C)CC2)C(C)(C)C)cc1 | = | 58 |
| Cc1ncsc1-c1ccc([C@H](COC(C)CN2CCC(c3ccc4c(c3)n(C3CCCC3)c3nc(=O)c5c(Br)cccc5n43)CC2)NC(=O)[C@@H]2C[C@@H](O)CN2C(=O)[C@@H](NC(=O)C2(N(C)C)CC2)C(C)(C)C)cc1 (stereo partly shown) | = | 51 |

###

- assay explanation: Plasma protein binding
- Type: in vitro ADME
- measurement setup: mouse, 10% plasma (plasma dilution in PBS), 10% mouse; read-out: PPB fu 10% Mouse

| compound | fraction unbound at 5 h, 3 µmol/L |
| --- | --- |
| Cc1ncsc1-c1ccc(C(CCC(C)CCN2CCC(c3ccc4c(c3)n(C3CCCC3)c3nc(=O)c5c(Br)cccc5n43)CC2)NC(=O)C2CC(O)CN2C(=O)C(NC(=O)C2(F)CC2)C(C)(C)C)cc1 (stereo not shown) | < 0.00051 |
